- targetOrSystem: WT-SrtA (Listeria monocytogenes serovar 1/2a)
- Sequence (Q8Y8H5 71-222): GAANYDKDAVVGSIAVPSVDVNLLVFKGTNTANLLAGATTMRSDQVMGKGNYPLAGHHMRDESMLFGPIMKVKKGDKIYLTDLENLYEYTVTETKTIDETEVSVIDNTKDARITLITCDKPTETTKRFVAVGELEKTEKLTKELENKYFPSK
- assayText: Fluorescence-quenching binding constant (WT-SrtA)
measuredEndpoint: Kd
Put your answer as a value accompanied by its unit after it.

Name the recorded Kd of the item O=C(CCc1ccc(O)cc1)c1c(O)cc(O)cc1O [phloretin] in your answer. 12.6 µM

###

- targetOrSystem: WT-SrtA (Listeria monocytogenes serovar 1/2a)
- assayText: Sortase A enzyme activity inhibition assay (WT-SrtA)
measuredEndpoint: pIC50
Value format note: pIC50 is -log10 of concentration (mol/L); just state the number.

Name the recorded pIC50 of the item O=C(CCc1ccc(O)cc1)c1c(O)cc(O)cc1O in your answer. 4.43

Just for reference, paper PMC5244253 is where these values come from.
